- TESTED_ON: GPBAR1 (TGR5) (Homo sapiens, UniProt Q8TDU6)
- Construct: pCMVSPORT6-human GPBAR1
- Sequence (Q8TDU6 1-330): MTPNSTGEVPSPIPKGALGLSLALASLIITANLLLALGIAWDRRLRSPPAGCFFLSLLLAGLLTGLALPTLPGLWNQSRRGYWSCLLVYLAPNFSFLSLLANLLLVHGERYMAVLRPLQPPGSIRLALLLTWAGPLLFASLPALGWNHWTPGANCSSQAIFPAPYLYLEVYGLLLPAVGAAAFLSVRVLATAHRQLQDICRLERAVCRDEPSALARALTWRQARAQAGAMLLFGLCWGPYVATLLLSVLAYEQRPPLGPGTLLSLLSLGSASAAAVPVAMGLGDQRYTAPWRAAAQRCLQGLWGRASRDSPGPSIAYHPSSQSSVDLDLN
- ASSAY_COMMENT: CRE-luciferase transactivation in HEK293T cells transfected with human GPBAR1
MEASUREMENT_LABEL: pEC50
Kindly note that pEC50 refers to -log10 of the concentration in mol/L and answer with the value alone.

For the compound CC[C@H]1[C@@H](O)[C@@H]2[C@H](CC[C@]3(C)[C@@H]([C@H](C)CCO)CC[C@@H]23)[C@@]2(C)CC[C@@H](O)C[C@@H]12 , give its measured pEC50 value.
6.40
